- target.or.test.system: Glucose transporter (Leishmania mexicana) (UniProt O61059)
- experimental.protocol: ST_JUDE_LEISH: Cytotoxicity at 2uM final concentration against transgenic Leishmania Mexicana promastigotes LmGT2 that are glucose transport deficient and complemented with the L. Mexicana glucose transporter 2. Activity is measured by DNA content using SYBR green in vitro
- Format: functional

{"columns": ["molecule", "inhibition, %"],
 "data": [
  ["O=C(Nc1cccc(-c2cccc(-c3nc4ccccc4[nH]3)c2)c1)c1csnn1", 1.92],
  ["O=C(NCCc1ccccc1)N(Cc1cccc(-c2ccc(CNCCc3ccccc3)cc2)c1)C1CCN(Cc2ccccc2)CC1", 0.12],
  ["CC[C@H](C)CNC(=O)c1cncc(-c2cccc(CN3CCC(N4CCCC4)CC3)c2)c1", -0.34],
  ["CC(=O)N[C@H](C(=O)Nc1ccc(-c2ccc(-c3nc4cc(C(F)(F)F)ccc4[nH]3)s2)cc1)C(C)C", 4.22],
  ["FC(F)(F)c1ccc2[nH]c(-c3cccc(-c4cccc(CNCc5cnn(-c6ccccc6)n5)c4)c3)nc2c1", 3.27],
  ["O=C(/C=C/c1ccc(Cl)cc1)NCCCCCN1CCCC(C(=O)Nc2cccc(Cl)c2)C1 (centres undefined)", 3.91],
  ["CCCCCc1ccc(N2C(N)=NC(N)=NC2(C)C)cc1", 4.35],
  ["Cc1cc(NC(=O)c2cccs2)ccc1OC1CCN(Cc2ccc(F)cc2)C1 (centres undefined)", 1.92],
  ["FC(F)(F)c1cccc(CNCC2CCN(CC3CCCCC3)CC2)c1", 0.34]
]}

====

- target.or.test.system: Glucose transporter (Leishmania mexicana) (UniProt O61059)
- experimental.protocol: ST_JUDE_LEISH: Cytotoxicity at 2uM final concentration against transgenic Leishmania Mexicana promastigotes LmGT2 that are glucose transport deficient and complemented with the L. Mexicana glucose transporter 2. Activity is measured by DNA content using SYBR green in vitro
- Assay type: functional

{"columns": ["chemical.smiles", "inhibition"],
 "data": [
  ["O=C(Nc1cccc(CN2CCCN(Cc3cccc(F)c3)CC2)c1)c1ccc(Cl)c(Cl)c1", "6.5%"],
  ["O=C1CCCN1CCCNCc1cccc(-c2cccc(-c3nc4cc(F)ccc4[nH]3)c2)c1", "0.04%"],
  ["FC(F)(F)c1ccc2[nH]c(-c3ccc(-c4cccc(CNCc5cnn(-c6ccccc6)n5)c4)s3)nc2c1", "2.46%"],
  ["CN1CCC(NCc2cccc(-c3ccc(S(=O)(=O)NCCc4ccccn4)cc3)c2)CC1", "-2.17%"],
  ["COc1cc(NC(=O)c2c(-c3c(F)cccc3Cl)noc2C)c(OC)cc1Cl", "-4.01%"],
  ["COc1ccc2ccc(OC)c(CNCCCCCCNCc3c(OC)ccc4ccc(OC)cc34)c2c1", "4.72%"],
  ["O=C(Cc1c[nH]cn1)Nc1cccc(-c2cccc(-c3nc4ccccc4[nH]3)c2)c1", "7.58%"],
  ["CCCCC(=O)Nc1nonc1-c1ccc(OCC)c(OCC)c1", "-4.47%"],
  ["Cc1cc(N[C@@H](Cc2ccccc2)C(=O)Nc2ccccc2)nc(NCC2CCCCC2)n1", "10.7%"]
]}

====

- target.or.test.system: Solute carrier family 2, facilitated glucose transporter member 1 (Homo sapiens) (UniProt P11166)
- Sequence (P11166 whole entry): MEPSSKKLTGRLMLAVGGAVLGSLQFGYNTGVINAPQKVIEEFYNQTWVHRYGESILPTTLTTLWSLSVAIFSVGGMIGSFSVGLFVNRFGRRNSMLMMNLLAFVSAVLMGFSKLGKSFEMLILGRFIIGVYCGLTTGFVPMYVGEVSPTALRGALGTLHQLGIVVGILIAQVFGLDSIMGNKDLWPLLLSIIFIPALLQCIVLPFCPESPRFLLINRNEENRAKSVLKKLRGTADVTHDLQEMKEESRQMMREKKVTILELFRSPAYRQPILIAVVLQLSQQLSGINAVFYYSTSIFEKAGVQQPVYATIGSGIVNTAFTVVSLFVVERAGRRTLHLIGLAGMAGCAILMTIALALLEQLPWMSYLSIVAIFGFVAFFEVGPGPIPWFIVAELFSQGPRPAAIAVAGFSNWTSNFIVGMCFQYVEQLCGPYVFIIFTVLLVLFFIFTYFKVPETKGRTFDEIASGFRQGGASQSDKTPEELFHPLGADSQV
- experimental.protocol: ST_JUDE_LEISH: Cytotoxicity at 2uM final concentration against transgenic Leishmania Mexicana promastigotes LmGLUT1 that are glucose transport deficient and complemented with the human glucose transporter GLUT1. Activity is measured by DNA content using SYBR green in vitro
- Assay type: functional
Listing of entries alongside the reported inhibition.

{"columns": ["compound", "inhibition"],
 "data": [
  ["CCN(CC)CCCNc1ncc2c(-c3ccc(NC(=O)Nc4cc(C(F)(F)F)ccc4F)cc3)nn(C)c2n1", "4.51%"],
  ["CNC(=O)/C=C/c1cc(NC(=O)Nc2cc(C)nc3c(F)cccc23)ccc1OC", "3.93%"],
  ["CCN1CCC(N(Cc2ccc(-c3ccc(C(F)(F)F)cc3)cc2)C(=O)Cn2c(SCc3ccc(F)cc3)nc(=O)c3c2CCC3)CC1", "-0.04%"],
  ["COc1cc2c(cc1OC)C(C(=O)Nc1cc(OC)c(OC)c(OC)c1)C(c1ccc(SC)cc1)N(C)C2=O (stereo not given)", "1.51%"],
  ["CC1(C)N=C(N)N=C(N)N1c1ccc(Oc2ccccc2)cc1", "1.59%"],
  ["CN1CCN(c2ccc(Nc3nccc(-c4cnn5ncccc45)n3)cc2Cl)CC1", "90.6%"],
  ["Cc1[nH]n(-c2cccc(Cl)c2)c(=O)c1-c1ccc(Cl)cc1", "-3.78%"],
  ["COc1ccc2nc3cc(Cl)ccc3c(N)c2c1", "15.8%"],
  ["Cc1[nH]c(C)c([N+](=O)[O-])c(=O)c1-c1ccc(Oc2ccc(OC(F)(F)F)cc2)cc1", "0.69%"],
  ["N=C(N)c1cc(Cl)cc(NC(=O)Nc2cc(Cl)cc(C(=N)N)c2)c1", "2.37%"],
  ["Cc1cc(C(=O)NC2CCN(Cc3ccccc3)CC2)ccc1-c1nc2ccc(C(F)(F)F)cc2[nH]1", "3.67%"],
  ["COc1ccccc1CCNC(=O)c1cc(Br)cc(N2CCN(c3ccncc3)CC2)c1", "1.16%"],
  ["CC(C)CN(C)Cc1ccc(-c2ccc(-c3nc4ccccc4[nH]3)s2)cc1", "-1.24%"],
  ["C=Cc1c(C2CCN(CCCCNC(=O)c3ccc(-c4ccc(C#N)cc4)cc3)CC2)ccc2c1CCCC2", "1.77%"],
  ["COc1ccc(-c2cc(C(=O)N3CCc4ccccc43)c3ccccc3n2)cc1OC", "-0.76%"],
  ["O=C(CSc1nccn1C1CCCCC1)Nc1cc(C(F)(F)F)ccc1Cl", "8.56%"],
  ["CCCCc1ccc2[nH]c(NC(=O)OC)nc2c1", "10.2%"],
  ["Cc1ccc(S(=O)(=O)n2nccc2-c2c(-c3ccc(Cl)cc3)noc2C)cc1", "3.44%"],
  ["CC(C)(CNCc1ccc(OC(F)(F)F)cc1)c1nc(-c2ccc(Cl)c(O)c2)c(-c2ccncc2)[nH]1", "-0.48%"],
  ["CO/C(=C\\C=C\\c1cc2cc(Cl)c(Cl)cc2[nH]1)C(=O)NC1CCN(CCOc2ccccc2)CC1", "8.51%"]
]}

All values here come from ChEMBL document CHEMBL3433997.
